# test.description: gradient 5% acetonitrile 3 min, to 50% in 2 min, to 85% in 15 min, held 3 min, 100 µL/min
# assay.setup: column: Zorbax Extend-C18 2.1 x 50 mm; eluents: water / acetonitrile, 0.1% formic acid
outcome.measure: RP-LC retention time (s)

[
  {
    "compound": "CN1C2CCC1CC(OC(=O)c1cc(Cl)cc(Cl)c1)C2 (stereo not given)",
    "RP-LC retention time / s": 669
  },
  {
    "compound": "CSc1nc(C)c(Br)c(N2CC2)n1",
    "RP-LC retention time / s": 596
  },
  {
    "compound": "Cc1cc(C)nc(NS(=O)(=O)c2ccc(NC(=O)c3c(F)cccc3F)cc2)n1",
    "RP-LC retention time / s": 653
  },
  {
    "compound": "COc1ccc(CC(=O)Nc2c(C(=O)N3CCN(c4ccccn4)CC3)oc3ccccc23)cc1",
    "RP-LC retention time / s": 675
  }
]

a: CCOC(=O)c1ccc2nc(C(F)(F)F)nc(NCCCc3ccccc3)c2c1
b: Cc1cccc(-c2nc3ccccn3c2NC(=O)Nc2ccccc2)c1
Which of the two gives a bigger number for RP-LC retention time: a or b ? Please respond with the label that marks your chosen entry. a
(a: 1300 s, b: 665 s)

a: Cc1ccc(-c2nc(-c3cccc(-c4ccnn4C)c3)no2)cc1F
b: COC(=O)c1c(C)[nH]c(C(=O)N2CCCC(C(=O)NCc3ccc(N(C)C)cc3)C2)c1C (stereo not given)
c: CCOC(=O)N1CCN(c2ncc(S(=O)(=O)c3ccc(C)cc3)c(N)n2)CC1
Form: Sort by [RP-LC retention time] Order [ ascending ] Returns: the labels listed in the requested order. b, c, a
(b: 597 s, c: 875 s, a: 1250 s)

a: C=CCn1c(=O)c2ccccc2n(Cc2nc(-c3cccc(OC)c3)no2)c1=O
b: CCN(CCCNC(=O)C1CCN(S(=O)(=O)N2CCOCC2)CC1)c1cccc(C)c1
Looking only at measured RP-LC retention time, which entry is lower, a or b ? Indicate which entry you chose by stating its label. b
(b: 623 s, a: 1010 s)

----------
# test.description: gradient 5% acetonitrile 3 min, to 50% in 2 min, to 85% in 15 min, held 3 min, 100 µL/min
# assay.setup: column: Zorbax Extend-C18 2.1 x 50 mm; eluents: water / acetonitrile, 0.1% formic acid
outcome.measure: RP-LC retention time (s)

As a guide, the following entries are already answered.
[
  {
    "compound": "Cc1nnc2n1CCC(NC(=O)Cc1cccs1)CC2 (stereo not given)",
    "outcome.measure": "RP-LC retention time",
    "quantity.unit": "s",
    "observed.result": 550
  },
  {
    "compound": "COC(=O)CN1C(=O)Nc2ccc(C)cc2C1c1ccccc1 (stereo not given)",
    "outcome.measure": "RP-LC retention time",
    "quantity.unit": "s",
    "observed.result": 840
  },
  {
    "compound": "CC1CCN(C(=O)CSc2nnc(-c3ccccc3F)o2)CC1",
    "outcome.measure": "RP-LC retention time",
    "quantity.unit": "s",
    "observed.result": 901
  },
  {
    "compound": "O=C(Nc1cnc(N2CCCC2)nc1)c1ccc(F)c(F)c1",
    "outcome.measure": "RP-LC retention time",
    "quantity.unit": "s",
    "observed.result": 748
  },
  {
    "compound": "O=C(Cc1ccccc1Br)NCC(=O)N1CCCc2ccccc21",
    "outcome.measure": "RP-LC retention time",
    "quantity.unit": "s",
    "observed.result": 862
  }
]

1: CS(=O)(=O)Nc1ccc(-c2noc(CNC(=O)c3ccccc3)n2)cc1
2: Cn1c(=O)n(CC(=O)N2CCc3ccccc3C2)c(=O)c2cnc(-c3ccc(Cl)cc3)nc21
Name the one with the greater RP-LC retention time value, either 1 or 2 as given. Could you answer with the label of the item you picked? 2
(2: 1140 s, 1: 704 s)
